- measured.on: T1, extracellular domain of FGFR2c protein (Example 1) (UniProt P21802 22-377)
- T1 construct: extracellular domain
- procedure.details: phage ELISA

[
  {
    "binder": "3E7 scFv displayed on phage (scFv) scFv: QVQLQQSGAELVKPGASVKMSCKASGYTFTIYNIHWVRQTPGQGLEWIGLIYPDNGDTSYNQKFKAKATLTADKSSSTAYMQLSSLTSEDSAVYYCARGGFDYWGQGTTLTVSSGGGGSGGGGSGGGGSNIVMTQSQKFMSTSVGDRVSVTCKASQNVGTNVAWYQQKPGQSPKALIYSASYRYSGVPDRFTGSGSGTDFTLTISGVQAEDLADYYCQQHYNTPYTFGGGTKLEIK",
    "binding result": "no binding"
  },
  {
    "binder": "3A3 scFv displayed on phage (scFv) scFv: QVQLQQSGAELVKPGASVKMSCKASGYTFTTYNIHWVRQTPGQGLEWIGLIYPDNGDTSYNQKFKAKATLTADKSSSTAYMHLSSLTSEDSAVYYCARGGFDYWGQGTTLTVSSGGGGSGGGGSGGGGSDIVMTQSHKFMSTSVGDRVSITCKASQDVNTDVSWYQQKPGQSPKLLIYSASYRYTGVPTRFTGSGSGTDFTFTISGVQAEDLADYYCQQHYNTPYTFGGGTRLEIK",
    "binding result": "no binding"
  }
]
